Assay: in vitro
Conditions: human, hela cells, % viability
assay.metric: viability at 28.5 h, 10 µM (%)
Response body: numeric value in %, unit text excluded.

Task: Give recorded viability at 28.5 h, 10 µM. Cc1ccc2oc(-c3cccc(NC(=O)c4ccccc4C(=O)O)c3)nc2c1 [CBK300481]
Output: 109

Task: Give recorded viability at 28.5 h, 10 µM. Nc1ncc(-c2cc(C(F)(F)F)cc(C(F)(F)F)c2)nc1Nc1ccc2[nH]ccc2c1 [CBK063651]
Output: 71.9

Task: Give recorded viability at 28.5 h, 10 µM. COc1cccc(C(=O)NCCC(=O)N2CCOCC2)c1 [CBK304639]
Output: 104

Task: Give recorded viability at 28.5 h, 10 µM. COCCNS(=O)(=O)c1ccc(Br)c(C(=O)N(C)Cc2cnn(C)c2)c1 [CBK304795]
Output: 96.6

Task: Give recorded viability at 28.5 h, 10 µM. CCn1nc(C)c(-c2cncn2CCCOc2cccc(C)c2)c1C [CBK281997]
Output: 98.2

Task: Give recorded viability at 28.5 h, 10 µM. Cc1ccn(CCC(=O)N2CCC3(C/C=C/C[C@H]4COCC[C@@H]4NC(=O)CNC3=O)CC2)n1 [CBK292070]
Output: 86

Task: Give recorded viability at 28.5 h, 10 µM. CCN(Cc1ccncc1)C(=O)Nc1cccnc1 [CBK145053]
Output: 111

Task: Give recorded viability at 28.5 h, 10 µM. Cc1cc(C)c2nn[nH]c2c1CN1CCCC1 [CBK018196]
Output: 100
